# PROCEDURE DETAILS: Stability of linkers L1-L4 conjugated to FGF21 (LC-MS)
# Format: physicochemical
# PROTOCOL CONDITIONS: +4° C., 72 hrs
METRIC NAME: +(1) H2O (%)
Give the number; % is assumed, so skip it.

Query: Consider the molecule shown here: L4-FGF21ΔH-A129C: Linker-4 conjugated to FGF21ΔH-A129C protein (Table 4; Table 5 row L4) (conjugate, UniProt Q9NSA1 29-209, looked up, variant H1* A129C, Linker-4 attached) Fibroblast growth factor 21: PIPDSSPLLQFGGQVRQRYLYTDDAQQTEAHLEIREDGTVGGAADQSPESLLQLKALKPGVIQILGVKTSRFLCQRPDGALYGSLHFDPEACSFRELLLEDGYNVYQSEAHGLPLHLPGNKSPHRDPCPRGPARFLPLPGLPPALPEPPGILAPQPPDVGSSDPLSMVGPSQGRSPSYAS What is its recorded +(1) H2O?
Reply: 30
